study.system: Alpha 2C adrenergic receptor (Homo sapiens, UniProt P18825)
Construct: expressed in transfected cells
Sequence (P18825 1-462): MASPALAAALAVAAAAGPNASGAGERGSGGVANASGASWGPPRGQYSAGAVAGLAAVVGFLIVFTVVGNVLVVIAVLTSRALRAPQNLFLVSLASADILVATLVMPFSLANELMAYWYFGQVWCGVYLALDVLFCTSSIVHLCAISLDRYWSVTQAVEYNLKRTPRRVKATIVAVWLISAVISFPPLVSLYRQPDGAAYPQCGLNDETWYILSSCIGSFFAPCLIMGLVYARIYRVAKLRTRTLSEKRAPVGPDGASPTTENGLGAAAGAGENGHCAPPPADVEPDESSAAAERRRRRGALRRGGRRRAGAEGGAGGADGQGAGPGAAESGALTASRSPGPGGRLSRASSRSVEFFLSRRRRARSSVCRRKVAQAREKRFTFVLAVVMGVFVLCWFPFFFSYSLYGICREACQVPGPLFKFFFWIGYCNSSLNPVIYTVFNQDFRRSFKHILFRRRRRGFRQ
method: RSAT (Receptor Selection and Amplification Technology) assay, alpha 2C
Type: cell-based
test.conditions: relative efficacy compared to a standard full agonist
Intrinsic Activity (efficacy) Alpha 2C below 0.9 gives False; Intrinsic Activity (efficacy) Alpha 2C at or above it gives True.

Say whether Brc1c(N=C2NCCN2)cnc2[nH]ccc12 [Compound 3] shows Intrinsic Activity (efficacy) Alpha 2C of 0.9 or more. False

Is reported Intrinsic Activity (efficacy) Alpha 2C greater than or equal to 0.9 here: Cn1ccc2cc(N=C3NCCN3)cnc21 [Compound 4] True

Confirm if Intrinsic Activity (efficacy) Alpha 2C reported for the compound c1cc2cc(N=C3NCCN3)cnc2[nH]1 [Compound 7] is 0.9 or above. True

In plain terms: is recorded Intrinsic Activity (efficacy) Alpha 2C at least 0.9 for c1cc2cc(N=C3NCCN3)cnc2o1 [Compound 5] ? False

Decide: is the reported value of Intrinsic Activity (efficacy) Alpha 2C for c1nc2cc(N=C3NCCN3)cnc2[nH]1 [Compound 8] equal to or greater than 0.9? False

Please tell me: is the compound c1nc2cc(N=C3NCCN3)cnc2s1 [Compound 6] at or over 0.9 in terms of Intrinsic Activity (efficacy) Alpha 2C? True
